Cited source for all entries: PubChem BioAssay (NCI)

- Test system: MALME-3M melanoma
- assay.details: NCI-60 one-dose screen, 48 h
- measurement.conditions: 10 µM unless noted
This is part of a sample that, as a whole, favours compounds with a hit. Of some 83,000 tested, about 20% had one in any assay. Active and inactive are the calls of the source. The calls were made as follows: active = growth percent below 10; inactive = the rest.
# output must be one of t for active, f for inactive

- compound: "COc1cc2nc(SCc3cc(OC)c(OC)c(OC)c3)n(Cc3ccccc3)c(=O)c2cc1OC"
  assigned.label: "f"
- compound: "Cc1cc(C(=O)CSc2nc3ccccc3c(=O)[nH]2)c(C)n1C"
  assigned.label: "f"
- compound: "Cc1ccc2nc(SCn3nnc4ccccc4c3=O)[nH]c2c1"
  assigned.label: "f"

Name the outcome recorded for COc1cccc2cc(-c3cc4ccccc4[nH]3)c(=NC(=O)c3ccc(Cl)cc3)oc12 in the assay.
f

Also need COc1cc(NCCN=C(N)NC(N)=NC(C)C)c2ncccc2c1 , thanks.
t

Also need O=C(Nc1cccc(Cl)c1)c1cc([N+](=O)[O-])ccc1O , thanks.
f

Also need C=C1C(=O)O[C@H]2[C@H]1CC/C(COC(=O)NCCc1cccc(OC)c1)=C\CC[C@@]1(C)O[C@@H]21 , thanks.
f

Also need NC(=O)NNC(=O)c1ccccc1 , thanks.
f

Also need Cn1cc(C=O)c2ccccc21 , thanks.
f

Also need CC(Br)C(O)c1cc2c(cc1Br)OCO2 (configuration not stated) , thanks.
f

Also need O=C(COc1ccccc1)N1N=C(c2ccc(Cl)cc2)CC1c1c[nH]c2ccccc12 (configuration not stated) , thanks.
f

Also need CCCCCCCCCCCCNC(=S)N/N=C/c1ccc(Cl)c(Cl)c1 , thanks.
f

Also need COc1cc(CCn2nnc3c(NCCCCO)ncnc32)cc(OC)c1 , thanks.
f

Also need CCN1C(=S)N(CC)C2Nn3c(s/c(=C4\C(=O)N(C)c5ccccc54)c3=O)=NC21 (configuration not stated) , thanks.
f

Also need Cc1cc(Nc2nc(-c3ccncc3)nc3ccccc23)n[nH]1 , thanks.
f

Also need COc1cc(C(=O)OCCCCCCCCCCC[P+](c2ccccc2)(c2ccccc2)c2ccccc2)ccc1O , thanks.
t

Also need COc1ccc(C(=O)c2cc(OC)c(OC)c(OC)c2)cc1/C=C/C(=O)c1ccc(OC)c(OC)c1 , thanks.
f

Also need CCCCC[C@@H]1Cc2cc(O)c(C(=O)O)c3c2[C@H](C[C@@]2(CCCO2)O3)O1 , thanks.
f

Also need CCOC(=O)C1=C(C)NC(=O)NC1c1ccc(OCC(=O)N/N=C/c2ccc(Cl)cc2)cc1 (configuration not stated) , thanks.
f

Also need NCCSC(c1ccccc1)(c1ccccc1)c1ccccc1 , thanks.
f

Also need O=C(NNC(=S)Nc1ccccc1)c1ccccn1 , thanks.
f

Also need COc1ccc(-c2cn[nH]c2-c2cc(OC)c3c(c2)OCO3)cc1 , thanks.
f

* * *

- Test system: EKVX NSCLC
- assay.details: NCI-60 one-dose screen, 48 h (100 = growth as untreated, 0 = no growth, -100 = all killed)
- measurement.conditions: 10 µM unless noted
The panel holds about 83,000 compounds, 20% with a hit somewhere; the sample as a whole holds those more often.
recorded.endpoint: growth (%)
Numbers only, in %.

- compound: "CCCn1c(=S)sc2c(Cl)nc(C)nc21"
  quantitative.result: 106

Please look at the items below and tell me growth for each one, in order.
1. O=c1[nH]c(CN2CCN(c3ccccc3F)CC2)nc2sc3c(c12)CCC3
2. CCOc1ccc(/C=C/C=N/NC(N)=S)cc1
3. Cc1ccc2c(c1)C(C)Cc1c(N(C)C)ncnc1N2C (stereo unspecified)
4. C/C1=C\CCC2(C)OC2CC2CCC(C)(O)C(CC1)C2(C)C (stereo unspecified)
5. CC(=O)c1cc(C(=O)c2ccc3c(c2)Sc2ccccc2N3)c2cc(C)ccn12

[100, 95.5, 27.2, 81.1, 31.1]

Please look at the items below and tell me growth for each one, in order.
1. O=C1NC(Cc2c[nH]c3ccccc23)C(=O)N1Cc1ccc(Cl)cc1 (stereo unspecified)
2. CSc1nc(-c2cc3ccccc3o2)cc(-c2ccc(Cl)cc2)c1C#N
3. CC/C=C\C[C@H]1C/C=C2/C(=O)C(Cl)=C[C@@H]2C/C=C\CCCC(=O)O1
4. CCC(c1ccc(OC)cc1)C(CC)c1ccc(OCC[N+](C)(C)C)cc1 (stereo unspecified)
5. O=C(Nc1ccc(F)c(Cl)c1)c1n[nH]c(=O)c2ccccc12

1: 103; 2: 73.7; 3: -82; 4: 81.1; 5: 123

* * *

- System: BT-549 breast
- assay.details: NCI-60 one-dose screen, 48 h (100 = growth as untreated, 0 = no growth, -100 = all killed)
- measurement.conditions: 10 µM unless noted
The panel holds about 83,000 compounds, 20% with a hit somewhere; the sample as a whole holds those more often.
Assign labels as follows, please: True for growth below 70%; False for growth equal to or exceeding 70%.

- compound: "C=C1C(=O)O[C@H]2[C@H]1CC/C(COC(=O)NCc1ccc(OC)cc1)=C\\CC[C@@]1(C)O[C@@H]21"
  target.or.system: "BT-549 breast"
  assigned.label: "True"
- compound: "COc1cccc(-c2nc3sccn3c2-c2ccnc(NCCCNS(=O)(=O)c3ccccc3)n2)c1"
  target.or.system: "BT-549 breast"
  assigned.label: "True"
- compound: "COc1ccc(/C=c2\\sc3n(c2=O)C2C(NN=3)N(C)C(=O)N2C)cc1 (configuration not stated)"
  target.or.system: "BT-549 breast"
  assigned.label: "False"
- compound: "CCCCCC(=O)OCc1ccccc1"
  target.or.system: "BT-549 breast"
  assigned.label: "False"
- compound: "O=S(=O)(NCCCNc1cc(-c2cn(-c3ccccc3)nc2-c2cccc(O)c2)ccn1)c1cccc2ccccc12"
  target.or.system: "BT-549 breast"
  assigned.label: "True"

Item CCCCNC(=O)NS(=O)(=O)c1ccc(N2N=C(c3ccc(C)cc3C)CC2c2ccc(OC)cc2)cc1 (configuration not stated) : growth beneath 70%, strictly?
True

Also need Cc1ccc(-c2csc3nc(C)c(CCCl)c(=O)n23)cc1 , thanks.
False

Also need COc1ccc(/C=C/c2cc(N3CCOCC3)c3cc(F)c(F)cc3n2)cc1OC , thanks.
True

Also need COc1ccc(-c2nnc(COc3ccc(NC(=O)Nc4ccc(Cl)c(C(F)(F)F)c4)cc3F)o2)cc1 , thanks.
True

Also need O=C(CN1CCOCC1)Nc1ccc(-c2nc3ccccc3s2)cc1 , thanks.
False

Also need Cc1ccc(Cn2c(-c3cccs3)nc3ccccc32)cc1 , thanks.
False

Also need Nc1c(C(=O)Nc2ccccc2)sc2nc3c(cc12)CCC3 , thanks.
False

Also need Cc1sc2nc(CSc3nnc(-c4ccco4)o3)[nH]c(=O)c2c1C , thanks.
False

Also need c1ccc2c(c1)Oc1ccccc1C2C1c2ccccc2Oc2ccccc21 , thanks.
False

Also need Cc1cc(C(=O)O)c(N)c(C)n1 , thanks.
False

Also need CNC(C)=O , thanks.
False

Also need COc1c(NC[C@H]2OC(O)[C@H](O)[C@@H](O)[C@@H]2O)c(=O)c1=O (some centres not stated) , thanks.
False

Also need Cc1cc(C)c(NC(=O)c2sc3nc4c(cc3c2N)CN(Cc2ccccc2)CC4)c(C)c1 , thanks.
True

* * *

- Test system: SR leukemia
- assay.details: NCI-60 one-dose screen, 48 h (100 = growth as untreated, 0 = no growth, -100 = all killed)
- measurement.conditions: 10 µM unless noted
About 83,000 compounds went through this panel and 20% of them were active in at least one assay; those are over-represented in the sample as a whole.
I'd appreciate it if you could supply growth values for the items below.
Answers are plain numbers, in %.

- chem.smiles: "NS(=O)(=O)c1ccc(CN2C(=O)c3cccc4cccc(c34)C2=O)cc1"
  unit.text: "%"
  growth: 104
- chem.smiles: "CCC(=O)Oc1cc(/C=C/C(=O)O[C@H]2C[C@H]3CN4CCc5c([nH]c6cc(OC)ccc56)[C@@H]4C[C@@H]3[C@@H](C(=O)OC)[C@@H]2OC)ccc1OC"
  unit.text: "%"
  growth: 1.95
- chem.smiles: "CC1=C(C#N)C(C)(C)C(C#N)=C(C)N1"
  unit.text: "%"
  growth: 95.8

Could you now look at the following compound, please?
Request the reported growth associated with O=S(=O)(NCCCNc1cc(-c2cn(-c3ccccc3)nc2-c2cccc(O)c2)ccn1)c1ccc(Br)cc1
-12.4

* * *

I'd appreciate it if you could supply growth values for the items below.
- Tested on: HOP-62 NSCLC
- assay.details: NCI-60 one-dose screen, 48 h (100 = growth as untreated, 0 = no growth, -100 = all killed)
- measurement.conditions: 10 µM unless noted
- Procedure: Growth inhibition of the HOP-62 human Non-Small Cell Lung tumor cell line is measured as a screen for anti-cancer activity. Cells are grown in 96 well plates and exposed to the test compound for 48 hours. Compounds are tested at a single concentration, which is 10^-5 M for most compounds. The reported endpoint is percent growth (GI% or GIPRCNT), where numbers from 0 - 100% represent growth inhibition, and numbers from -100% - 0 represent cell death. […]
Compounds without any hit were thinned out: in the full panel of roughly 83,000, 20% have a hit. Calls of active or inactive are those of the source. Rule for the calls: active = growth percent below 10; inactive = the rest.

These recorded examples may help you get a feel for the data.
- chem.smiles: "O=S=Nc1ccc([N+](=O)[O-])cc1"
  growth: "89.6% (inactive)"
- chem.smiles: "CC/C=C\\C[C@H](O)C/C=C1/C(=O)C(Cl)=C[C@@H]1C/C=C\\CCCC(=O)OC"
  growth: "-27.1% (active)"
- chem.smiles: "COc1ccccc1OCC(=O)Nc1sc2c(c1C(N)=O)CCC2"
  growth: "49.7% (inactive)"
- chem.smiles: "CCCS(=O)(=O)c1nc(NC2CC2)cc(-c2ccc3c(ccn3C3CC(C)(C)NC(C)(C)C3)c2)n1"
  growth: "7.4% (active)"
- chem.smiles: "O=S(=O)(NCCCNc1cc(-c2cn(-c3ccccc3)nc2-c2cccc(O)c2)ccn1)c1cccc(F)c1"
  growth: "66.7% (inactive)"
- chem.smiles: "COc1cc(NC(=O)CCl)ccc(=O)c1"
  growth: "113% (inactive)"
- chem.smiles: "COc1cc(Cn2c(-c3nonc3N)nc3ccccc32)ccc1C"
  growth: "30.5% (inactive)"
- chem.smiles: "C=CCOc1cccc(/C=C/C(=O)c2sc(Nc3cccnc3)nc2C)c1"
  growth: "68.2% (inactive)"

Please look at the items below and tell me growth for each one, in order.
1. O=c1oc2cc(OS(=O)(=O)c3ccccc3)c(Cl)cc2c2c1CCCCCC2
2. COC1=CC(c2ccc[nH]2)=N/C1=C\c1[nH]c(C)c(C(=O)CCCCC(=O)Nc2ccccc2)c1C

118% (inactive)
80.7% (inactive)
